TESTED SYSTEM: T1, human IL-2Rβ (human, UniProt P14784 27-240, limits assumed)
T1 construct: Recombinant human IL-2Rβ protein, coated on ELISA plates or immobilized on a CM5 chip; also called hu IL-2R; interleukin 2 receptor β-chain
T1 sequence: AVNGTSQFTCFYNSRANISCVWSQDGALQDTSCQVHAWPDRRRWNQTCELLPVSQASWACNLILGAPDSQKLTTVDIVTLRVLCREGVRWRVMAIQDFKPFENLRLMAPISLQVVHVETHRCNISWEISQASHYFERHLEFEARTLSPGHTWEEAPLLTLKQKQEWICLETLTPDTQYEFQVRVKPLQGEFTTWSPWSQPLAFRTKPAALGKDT
PROTOCOL: SPR off-rate ranking of P.E., human IL-2Rβ immobilized
Threshold-based label: koff under 0.0006 s⁻¹ gives y, koff not under 0.0006 s⁻¹ gives n.

>>> assigned_category("FJ1427_P035MP06H04 (VHH, Soluble VHH in periplasmic extract (P.E.); also called Clone nr) VHH: EVQLVESGGGLVQAGGSLRLSCAVSGDVFVRYTMAWFRQAPGKEREFVASVTDSGRTTEYVDSVKGRFTVSRDNAKNTAYLQMNNLKPEDTAVYYCAANTDYFQIRSLDLNTWGQGTQVTVSS")
"y"
>>> assigned_category("FJ1427_P035MP06D07 (VHH, Soluble VHH in periplasmic extract (P.E.); also called Clone nr; 532) VHH: QVQLVESGGGLVQAGGSLRLSCAASGDVFVRYTMAWFRQAPGKEREFVASVTDSGRTTEYVDSVKGRFTVSRDNAKNTAYLQMNNLKPEDTAIYYCAANTDYFQIRSLDLNTWGQGTQVTVSS")
"y"
>>> assigned_category("FJ1427_P035MP06H08 (VHH, Soluble VHH in periplasmic extract (P.E.); also called Clone nr) VHH: QVQLVESGGGLVQAGGSLRLSCAASGDVFVRYTMAWFRQAPGKEREFVASVTDSGRTTEYVDSVKGRFTVSRDNAKNTAYLQMNNLKPEDTAIYYCAANTDYFQIRSLDLNTWGQGTQVTVSS")
"y"
>>> assigned_category("FJ1427_P035MP06C05 (VHH, Soluble VHH in periplasmic extract (P.E.); also called Clone nr) VHH: EVQLVESGGGLVQAGGSLRLSCVVSGDVFVRYTMAWFRQAPGKGREFVAVVTDSGRTTEYVDSVKGRFTVSRDNAKNTVYLQMNNLKPEDTAVYYCAANTDYFQIRSVDNNAWGQGTQVTVSS")
"n"
>>> assigned_category("FJ1427_P035MP06B10 (VHH, Soluble VHH in periplasmic extract (P.E.); also called Clone nr; 554) VHH: QVQLVESGGGLVQAGGSLRLSCAASGDVLVRYTMAWFRQAPGKEREFVASVTDSGRTTEYVDSVKGRFTVSRDNAKNTAYLQMNNLKPEDTAIYYCAANTDYFQIRSLDLNTWGQGTQVTVSS")
"n"
>>> assigned_category("FJ1427_P035MP06D06 (VHH, Soluble VHH in periplasmic extract (P.E.); also called Clone nr) VHH: EVQLVESGGGLVQAGGSLRLSCAVSGDVFVRYTMAWFRQAPGKEREFVASVTDSGRTTEYVDSVKGRFTVSRDNAKNTAYLQMNNLKPEDTAVYYCAANTDYFQIRSLDLNTWGQGTQVTVSS")
"y"
>>> assigned_category("FJ1427_P035MP06F06 (VHH, Soluble VHH in periplasmic extract (P.E.); also called Clone nr) VHH: QVQLVESGGGLVQAGGSLRLSCAASGDVFVRYTMAWFRQAPGKEREFVASVTDSGRTTDYVDSVKGRFTVSRDNAKNTVYLQMNNLKPEDTAVYYCAANTDYFQIRSLEFNTWGQGTQVTVSS")
"n"
>>> assigned_category("FJ1427 P035MP06G09 (VHH, Soluble VHH in periplasmic extract (P.E.); also called Clone nr; 551) VHH: QVQLVESGGGLVQPGGSLRLSCAASGDVFVRYTMAWFRQAPGKEREFVASVTDSGRTTDYVDSVKGRFTVSRDNAKNTVYLQMNNLKPEDTAVYYCAANTDYFQIKSLDRNTWGQGTQVTVSS")
"n"
>>> assigned_category("FJ1427_P035MP06G08 (VHH, Soluble VHH in periplasmic extract (P.E.); also called Clone nr; 543) VHH: QVQLQESGGGLVQAGGSLRLSCAASGDVFVRYTMAWFRQAPGKEREFVASVTDSGRTTEYVDSVKGRFTVSRDNAKNTAYLQMNNLKPEDTAVYYCAANTDYFQIRSLNLNTWGQGTQVTVSS")
"y"
>>> assigned_category("FJ1427_P035MP06C06 (VHH, Soluble VHH in periplasmic extract (P.E.); also called Clone nr; 523) VHH: QVQLQESGGGLVQAGGSLRLSCVVSGDVFVRYTMAWFRQAPGKEREFVAVVTDSGRTTEYVDSVKGRFTVSRDNAKNTVYLQMNNLKPEDTAVYYCAANTDYFQIRSVDNNAWGQGTQVTVSS")
"n"
>>> assigned_category("FJ1427_P035MP06C04 (VHH, Soluble VHH in periplasmic extract (P.E.); also called Clone nr) VHH: QVQLQESGGGLVQAGGSLRLSCAASGDVFVRYTMAWFRQAPGKEREFVASVTDSGRTTDYVDSVKGRFTVSRDNAKNTVYLQMNNLKPEDTAVYYCAANTDYFQIRSLEFNTWGQGTQVTVSS")
"n"
>>> assigned_category("FJ1427_P035MP06C10 (VHH, Soluble VHH in periplasmic extract (P.E.); also called Clone nr; 555) VHH: QVQLVESGGGLVQAGGSLRLSCAVSGDVFVRYTMAWFRQAPGKEREFVASVTDSGRTTEYVDSVKGRFTVSRDNAKNTAYLQMNNLKPEDTAVYYCAANTDYFQIRSLDLNTWGQGTQVTVSS")
"y"
>>> assigned_category("FJ1427_P035MP06A06 (VHH, Soluble VHH in periplasmic extract (P.E.); also called Clone nr) VHH: QLQLVESGGGLVQAGGSLRLACALSGDVFVRYTMAWFRQAPGKEREFVASVTDSGRTTDYVASVQGRFTVSRDNNKNTVYLQMNSLKPEDTAVYYCAANTDYFQIRSLDRNTWGQGTQVTVSS")
"n"
>>> assigned_category("FJ1427_P035MP06E06 (VHH, Soluble VHH in periplasmic extract (P.E.); also called Clone nr; 525) VHH: EVQLVESGGGLVQAGGSLRLFCAVSGDVFVRYTMAWFRQAPGKEREFVASVTDSGRTTEYVDSVKGRFTVSRDNAKDTAYLQMNNLKPEDTAVYYCAANTDYFQIRSLDLNTWGQGTQVTVSS")
"y"
>>> assigned_category("FJ1427_P035MP06G04 (VHH, Soluble VHH in periplasmic extract (P.E.); also called Clone nr) VHH: QVQLQESGGGLVQAGGSLRLSCVVSGDVFVRYTMAWFRQAPGKEREFVAVVTDSGRTTEYVDSVKGRFTVSRDNAKNTVYLQMNNLKPEDTAVYYCAANTDYFQIRSVDNNAWGQGTQVTVSS")
"n"
